All figures here come from BindingDB's records for doi:10.1021/acs.jnatprod.6b01127.

# targetSystem: Signal transducer and activator of transcription 3 (Homo sapiens)
# method: Inhibition of IL-6-Induced STAT3 activation (unknown origin) expressed in human HepG2 cells expressing pSTAT3-luciferase pre-incubated for 1 hr before IL-6 stimulation for 6 hrs by luciferase reporter gene assay
metric: IC50 (µM)

a = COC(=O)C1=CO[C@@H](O[C@@H]2O[C@H](CO)[C@@H](O)[C@H](O)[C@H]2O)[C@@H]2[C@H](C)O[C@@H](OC[C@H]3O[C@@H](O[C@@H]4OC=C(C(=O)OC)[C@H]5C[C@@H](OC)O[C@@H](C)[C@@H]45)[C@H](O)[C@@H](O)[C@@H]3O)C[C@H]12
b = COC(=O)C1=CO[C@@H](O[C@@H]2O[C@H](C)[C@@H](O)[C@H](O)[C@H]2O)[C@@H]2[C@H](C)O[C@@H](O[C@@H]3[C@@H](O)[C@H](O[C@@H]4OC=C(C(=O)OC)[C@H]5C[C@H](OC)O[C@@H](C)[C@@H]45)O[C@H](CO)[C@H]3O)C[C@H]12
Hi there, can you help? I need to know whether a or b has lower measured IC50. Pick one and reply with its label.
b

* * *

# targetSystem: Signal transducer and activator of transcription 3 (Homo sapiens, UniProt P40763)
# Sequence (P40763 whole entry): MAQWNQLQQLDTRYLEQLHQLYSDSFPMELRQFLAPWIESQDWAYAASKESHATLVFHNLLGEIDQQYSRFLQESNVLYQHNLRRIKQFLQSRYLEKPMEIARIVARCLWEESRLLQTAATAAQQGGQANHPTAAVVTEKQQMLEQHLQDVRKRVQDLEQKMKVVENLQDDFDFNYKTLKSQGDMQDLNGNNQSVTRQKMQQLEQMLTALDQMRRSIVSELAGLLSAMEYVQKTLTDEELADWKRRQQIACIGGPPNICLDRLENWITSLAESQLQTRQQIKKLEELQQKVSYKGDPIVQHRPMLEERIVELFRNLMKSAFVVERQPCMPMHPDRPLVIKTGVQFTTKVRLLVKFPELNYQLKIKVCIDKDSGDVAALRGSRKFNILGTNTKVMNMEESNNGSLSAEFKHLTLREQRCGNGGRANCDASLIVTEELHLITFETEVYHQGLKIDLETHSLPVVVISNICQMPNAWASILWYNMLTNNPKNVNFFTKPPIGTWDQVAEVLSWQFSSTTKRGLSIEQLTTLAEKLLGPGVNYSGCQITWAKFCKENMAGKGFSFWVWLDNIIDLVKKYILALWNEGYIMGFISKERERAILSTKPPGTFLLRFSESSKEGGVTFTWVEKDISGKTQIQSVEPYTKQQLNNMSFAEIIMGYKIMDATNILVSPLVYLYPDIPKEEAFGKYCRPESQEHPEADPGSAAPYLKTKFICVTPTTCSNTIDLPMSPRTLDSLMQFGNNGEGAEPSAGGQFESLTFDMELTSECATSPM
# method: Inhibition of IL-6-Induced STAT3 activation (unknown origin) expressed in human HepG2 cells expressing pSTAT3-luciferase pre-incubated for 1 hr before IL-6 stimulation for 6 hrs by luciferase reporter gene assay
pIC50: −log10 of the molar value.
metric: pIC50

COC(=O)C1=CO[C@@H](O[C@@H]2O[C@H](CO)[C@@H](O)[C@H](O)[C@H]2O)[C@@H]2[C@H](C)O[C@H](O[C@H]3[C@H](O[C@@H]4OC=C(C(=O)OC)[C@H]5C[C@@H](OC)O[C@@H](C)[C@@H]45)O[C@H](CO)[C@@H](O)[C@@H]3O)C[C@H]12 : 4.71

A = COC(=O)C1=CO[C@@H](O[C@@H]2O[C@H](CO)[C@@H](O)[C@H](O)[C@H]2O)[C@@H]2[C@H](C)O[C@H](O[C@H]3[C@H](O[C@@H]4OC=C(C(=O)OC)[C@H]5C[C@H](OC)O[C@@H](C)[C@@H]45)O[C@H](CO)[C@@H](O)[C@@H]3O)C[C@H]12
B = CCO[C@H]1C[C@@H]2C(C(=O)OC)=CO[C@@H](O[C@@H]3O[C@H](CO)[C@@H](O)[C@H](O)[C@H]3O)[C@@H]2[C@H](C)O1
Parameter check: reported pIC50 is higher for which label, A or B ? Reply with the label of the item you choose.
A
(A: 4.66, B: 4.17)

* * *

# targetSystem: Signal transducer and activator of transcription 3 (Homo sapiens, UniProt P40763)
# method: Inhibition of IL-6-Induced STAT3 activation (unknown origin) expressed in human HepG2 cells expressing pSTAT3-luciferase pre-incubated for 1 hr before IL-6 stimulation for 6 hrs by luciferase reporter gene assay
pIC50: −log10 of the molar value.
metric: pIC50

// known answers, use as guide
O=c1c(-c2ccc(O)cc2)coc2cc(O)cc(O)c12 : 4.61
COC(=O)C1=CO[C@@H](O[C@@H]2O[C@H](CO)[C@@H](O)[C@H](O)[C@H]2O)[C@@H]2[C@H](C)O[C@@H](O)C[C@H]12 : 5.16
COC(=O)C1=CO[C@@H](O[C@@H]2O[C@H](CO)[C@@H](O)[C@H](O)[C@H]2O)[C@@H]2[C@H](C)O[C@@H](OC)C[C@H]12 : 4.61
C=C[C@H]1[C@H](O[C@@H]2O[C@H](CO)[C@@H](O)[C@H](O)[C@H]2O)OC=C2C(=O)OCC[C@H]21 : 4.05

1 = COC(=O)C1=CO[C@@H](O[C@@H]2O[C@H](CO)[C@@H](O[C@H]3C[C@@H]4C(C(=O)OC)=CO[C@@H](O[C@@H]5O[C@H](C)[C@@H](O)[C@H](O)[C@H]5O)[C@@H]4[C@H](C)O3)[C@H](O)[C@H]2O)[C@@H]2[C@@H](C)[C@@H](O)C[C@H]12
2 = COC(=O)C1=CO[C@@H](O[C@@H]2O[C@H](C)[C@@H](O)[C@H](O)[C@H]2O)[C@@H]2[C@H](C)O[C@@H](O[C@@H]3[C@@H](O)[C@H](O[C@@H]4OC=C(C(=O)OC)[C@H]5C[C@@H](OC)O[C@@H](C)[C@@H]45)O[C@H](CO)[C@H]3O)C[C@H]12
3 = COC(=O)C1=CO[C@@H](O[C@@H]2O[C@H](CO)[C@@H](O)[C@H](O)[C@H]2O)[C@@H]2[C@@H](C)[C@@H](O)C[C@H]12
Sort ascending by pIC50. Put the labels in the requested order and list them out.
1, 2, 3
